Entry source: patent US20220348668A1

# Study system: T1, CD123 (protein in solution in the Octet affinity assay) (human, UniProt P26951 19-305, limits assumed)
# T1 construct: also called IL-3Rα; Interleukine-3 Receptor alpha
# T1 sequence (looked up): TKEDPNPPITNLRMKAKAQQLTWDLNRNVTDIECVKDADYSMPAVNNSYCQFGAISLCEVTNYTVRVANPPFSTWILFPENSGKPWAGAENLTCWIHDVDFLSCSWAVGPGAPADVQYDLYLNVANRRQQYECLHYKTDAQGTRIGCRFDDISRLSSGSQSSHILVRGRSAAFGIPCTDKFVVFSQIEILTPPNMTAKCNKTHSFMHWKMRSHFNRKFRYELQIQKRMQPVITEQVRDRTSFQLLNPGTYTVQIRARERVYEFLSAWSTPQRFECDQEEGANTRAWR
# Run description: BLI (Octet), antibody on streptavidin biosensor, CD123 25 nM
Short version: Response at least 0.3 is YES, less is NO.

binder="18B4D5 (antibody, V domains shown, Mouse hybridoma monoclonal antibody; The tie uses 'at least 85% identity' wording; also called AB1; antiCD123 B4D5) VH: EVKLQESGPGLVKPSQSLSLTCTVTGYSITSDYTWNWIRQFPGNKLEWMGYISFSGSTSYNPSLKSRLSITRDTSKNQFFLQLNSVTTEDTATYYCARGLDYWGQGTTLTVSS VL: DIVMTQSPAIMSASLGERVTMTCTASSSISSSYLYWYQQKPGSSPKLWIYSTSNLASGVPARFSGSGSGTSYSLTISSMEAEDAATYYCHQLHRSPWTFGGGTKLEIKR" class_name=YES
binder="11B6E6 (antibody, V domains shown, Mouse hybridoma monoclonal antibody; also called AB3) VH: QVKLEESGPGLVAPSQSLSITCTVSGFSLTSYDISWIRQPPGKGLEWLGVIWTGGGTNYNSAFMSRLSISKDNSKSQVFLKMFSLQTDDTAIYYCVRAHGYYFAMDYWGQGTSVTVSS VL: DIVLTQSPSSLAVSAGEKVTMRCKSSQSLLNSSTRKNYLAWYQQKPGQSPKLLIYWASTRESGVPDRFTGSGSGTDFTLTISSVQAEDLAVYYCKQSYNLFTFGSGTKLEIKR" class_name=NO
binder="17F7B2 (antibody, V domains shown, Mouse hybridoma monoclonal antibody; also called AB2) VH: EVQLQQSGTVLARPGASVKMSCKASGYSFTSYWMHWVKQRPGQGLEWIGAFYPGKSDTTYNQKFKGKAKLTAVTSASTAYMELSSLTNEDSAVYYCTKGYRYDWFAYWGQGTLVTVSA VL: DVVMTQTPLSLPVSLGDQASISCRSSQSLVHSNGITYLHWYLQKPGQSPKLLIYKVSNRFSGVPDRFSGSGSGTDFTLKISRVEAEDLGVYFCSQNTHVPFTFGSGTKLEIKR" class_name=YES
binder="14G12D7 (antibody, V domains shown, Mouse hybridoma monoclonal antibody; also called AB4) VH: EVQLQESGPGLVKPSQSLSLTCTVTGYSVTSDYAWNWIRQFPGNKLEWMGYIIYSGTTSYNPSLKSRISITRDTSKNQFFLQLNSVTTEDTATYYCTRGVDYWGQGTTLTVSS VL: DIVLTQSPAIMSASPGEKVTMTCRASSSVRSSYLHWYQQKSGASPKLWIYSTSNLASGVPARFSGSGSGTSYSLTISSVEAEDAATYYCLQFSGYPFTFGGGTKLEIKR" class_name=NO
